Tested on: primary rabbit kidney cell cultures
methodNotes: Minimal cytotoxic concentration in the antiviral test
Reported Minimal Cytotoxic Conc. by item:

| compound | Minimal Cytotoxic Conc. |
| --- | --- |
| Cl.Cl.Cn1cc(NC(=O)c2cc(NC(=O)CCCCCCC(=O)Nc3cc(C(=O)Nc4cc(C(=O)NCCC(=N)N)n(C)c4)n(C)c3)cn2C)cc1C(=O)NCCC(=N)N | ≥ 10 μg/m |
| Cl.Cl.Cn1cc(NC(=O)c2cc(NC(=O)/C=C/C(=O)Nc3cc(C(=O)Nc4cc(C(=O)NCCC(=N)N)n(C)c4)n(C)c3)cn2C)cc1C(=O)NCCC(=N)N [m=1 n=1 R = COCH CHCO (trans)] | ≥ 40 μg/m |
| Cl.Cl.Cn1cc(NC(=O)c2cc(NC(=O)CCCCCCCC(=O)Nc3cc(C(=O)Nc4cc(C(=O)NCCC(=N)N)n(C)c4)n(C)c3)cn2C)cc1C(=O)NCCC(=N)N | ≥ 100 μg/m |
| Cl.Cl.Cn1cc(NC(=O)c2cc(NC(=O)c3cc(NC(=O)CCC(=O)Nc4cc(C(=O)Nc5cc(C(=O)Nc6cc(C(=O)NCCC(=N)N)n(C)c6)n(C)c5)n(C)c4)cn3C)cn2C)cc1C(=O)NCCC(=N)N | ≥ 40 μg/m |
